- Tested on: SK-MEL-28 melanoma
- assay_name: NCI-60 one-dose screen, 48 h (100 = growth as untreated, 0 = no growth, -100 = all killed)
- test_context: 10 µM
About 83,000 compounds went through this panel and 20% of them were active in at least one assay; those are over-represented in the sample as a whole.
Please note: Condition met applies when growth is 10% or greater, and Condition not met applies otherwise.

(Q) Determine whether measured growth meets or exceeds 10% for "CN1CCCN(Cc2ccc(C(=O)Nc3cccc(Nc4ccc5c(O)cccc5n4)c3)cc2C(F)(F)F)CC1"
(A) Condition not met

(Q) Determine whether measured growth meets or exceeds 10% for "O=C(N/C(=C1/OCCN1Cc1ccccc1)[P+](c1ccccc1)(c1ccccc1)c1ccccc1)c1ccccc1"
(A) Condition met

(Q) Determine whether measured growth meets or exceeds 10% for "O=C(Nc1ccc(OCc2ccccc2)cc1)Nc1ccc(Cl)c(C(F)(F)F)c1"
(A) Condition met

(Q) Determine whether measured growth meets or exceeds 10% for O=C1CCC(N2Cc3cc(NC(=O)COc4ccccc4)ccc3C2=O)C(=O)N1 (stereo not drawn)
(A) Condition met

(Q) Determine whether measured growth meets or exceeds 10% for "N#C/C(=C\c1ccc(N(c2ccccc2)c2ccccc2)cc1)C(N)=O"
(A) Condition met

(Q) Determine whether measured growth meets or exceeds 10% for "O=C(CSc1nnc(-c2ccc3nc(-c4ccc(Cl)cc4)[nH]c3c2)o1)Nc1ccc(Cl)cc1"
(A) Condition not met

(Q) Determine whether measured growth meets or exceeds 10% for "Cc1nc(Nc2nc(C)c3ccc(OCCN4CCOCC4)cc3n2)[nH]c(=O)c1C"
(A) Condition not met

(Q) Determine whether measured growth meets or exceeds 10% for "O=C1Nc2cc(Cl)ccc2/C1=C/c1cccc(OCc2ccccc2)c1"
(A) Condition not met

(Q) Determine whether measured growth meets or exceeds 10% for "CC(=O)Nc1ccc(-c2cn(-c3cccc(C(=O)Nc4cc(CN5CCOCC5)cc(C(F)(F)F)c4)c3)nn2)cn1"
(A) Condition not met

(Q) Determine whether measured growth meets or exceeds 10% for OCc1[nH]nc2cc(Nc3ncc4ccc(Br)c(OC5CCC(O)CC5)c4n3)ccc12 (stereo not drawn)
(A) Condition not met

(Q) Determine whether measured growth meets or exceeds 10% for "Cc1ccc(-c2nc3ccc(C(=O)N=Nc4c(O)[nH]c5ccc(Br)cc45)cc3[nH]2)cc1"
(A) Condition met

(Q) Determine whether measured growth meets or exceeds 10% for "COc1ccc(NC(=O)Nc2ccc(OCC(=O)N=Nc3c(O)[nH]c4ccc([N+](=O)[O-])cc34)cc2)cc1"
(A) Condition met

(Q) Determine whether measured growth meets or exceeds 10% for "CC(C)c1ccc(C(=O)Nc2sc3c(c2C(N)=O)CCC(=O)C3=O)cc1"
(A) Condition met

(Q) Determine whether measured growth meets or exceeds 10% for O=C1CCC(N2Cc3cc(CC(=O)Nc4ccc(N5CCCCC5)cc4)ccc3C2=O)C(=O)N1 (stereo not drawn)
(A) Condition met

(Q) Determine whether measured growth meets or exceeds 10% for "S=c1nc(-c2ccccc2)cc(-c2cc3ccccc3nc2Cl)[nH]1"
(A) Condition met

(Q) Determine whether measured growth meets or exceeds 10% for "CCCCCCCCCCCCCCCCCCCC(=O)NCCc1c[nH]c2ccc(OC(=O)NOCCOCCOCCOCCOCCOCCOCCOCCOCCOCCOCCOCCOCCOCCOCCOCCOCCOCCOCCOCCOCCOCCOC)cc12"
(A) Condition not met

(Q) Determine whether measured growth meets or exceeds 10% for "C/C(=N\N=C\c1ccc(N(C)C)cc1)c1ccc2c(c1)Nc1ccccc1S2"
(A) Condition met
